- target entity: gp130-D1-D3 (Homo sapiens, UniProt P40189)
- Construct: residues 1-301, the numbering system is based on PDB 3L5H, which is the mature form of gp130; tandem TFH purification tag (includes FLAG, as purified on anti-FLAG M2 agarose) (C); virus generated in sf9)
- Sequence (P40189 23-323): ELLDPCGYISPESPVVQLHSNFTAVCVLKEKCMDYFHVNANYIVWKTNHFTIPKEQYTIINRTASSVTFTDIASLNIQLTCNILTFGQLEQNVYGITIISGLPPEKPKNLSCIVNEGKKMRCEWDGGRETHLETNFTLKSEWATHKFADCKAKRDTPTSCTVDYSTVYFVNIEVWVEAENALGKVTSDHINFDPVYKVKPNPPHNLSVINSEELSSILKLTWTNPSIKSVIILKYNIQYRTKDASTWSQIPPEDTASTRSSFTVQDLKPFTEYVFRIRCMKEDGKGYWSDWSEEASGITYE
- assay explanation: SPR direct binding to immobilized gp130-D1-D3 (CM5 chip)
- protocol conditions: SPR, gp130-D1-D3, linear regression at low concentrations, 25% Rmax
pKd: −log10 of the molar value.
quantity: pKd

>>> endpoint_value("O=C(Nc1cccc(OCCN2CCCCC2)c1)Nc1cccc(-c2ccn[nH]2)c1")
4.81
>>> endpoint_value("O=C(Nc1cccc(-c2ccn[nH]2)c1)c1ccc(OCCCN2CCCCC2)cc1")
4.67
>>> endpoint_value("O=C(Nc1ccccc1-c1ccn[nH]1)c1ccc(OCCN2CCCCC2)cc1")
4.69
>>> endpoint_value("CCCCC1=C(C)C(=O)[C@](C)(CN2c3ccccc3[C@]3(O)CCOC23)C1=O (stereo partly shown) [MDL-A, Madindoline A, reference compound]")
3.48

* * *

- target entity: gp130-D1-D3 (Homo sapiens, UniProt P40189)
- Construct: residues 1-301, the numbering system is based on PDB 3L5H, which is the mature form of gp130; tandem TFH purification tag (includes FLAG, as purified on anti-FLAG M2 agarose) (C); made in house; host or cells: Hi5 insect cells (baculovirus; virus generated in sf9)
- assay explanation: SPR direct binding to immobilized gp130-D1-D3 (CM5 chip)
- protocol conditions: experimental binding energy from SPR KD
quantity: ΔGexp (kcal/mol)

>>> endpoint_value("CCCCC1=C(C)C(=O)[C@](C)(CN2c3ccccc3[C@]3(O)CCOC23)C1=O (stereo partly shown) [MDL-A, Madindoline A, reference compound]")
-4.75
>>> endpoint_value("O=C(Nc1cccc(-c2ccn[nH]2)c1)c1ccc(OCCCN2CCCCC2)cc1 [LLM41]")
-6.36
>>> endpoint_value("O=C(Nc1cccc(OCCN2CCCCC2)c1)Nc1cccc(-c2ccn[nH]2)c1 [LLM414]")
-6.55
>>> endpoint_value("O=C(Nc1ccccc1-c1ccn[nH]1)c1ccc(OCCN2CCCCC2)cc1 [LLM418]")
-6.39

* * *

- System: MCF7 breast cancer cell line
- assay explanation: MTT cell viability assay, MCF7
- Assay type: cell-based, human
- protocol conditions: Homo sapiens; MCF7 (low IL-6), 48 h, 0% FBS medium
pIC50: −log10 of the molar value.
quantity: pIC50

>>> endpoint_value("O=C(Nc1cc(F)ccc1-n1cccc1)c1ccc(OCCCN2CCCCC2)cc1 [LLM4]")
5.35

* * *

- System: MCF7 breast cancer cell line
- assay explanation: MTT cell viability assay, MCF7
- Type: cell-based, human
- protocol conditions: MCF7 (low IL-6), 48 h, 0% FBS medium
pIC50: −log10 of the molar value.
quantity: pIC50

>>> endpoint_value("O=C(NNc1nc2cc(F)ccc2n2cccc12)c1cnccn1 [SC144, reference compound]")
5.33

* * *

- Tested on: Capan-1 pancreatic cancer cell line
- assay explanation: MTT cell viability assay, Capan-1
- Assay type: cell-based
- protocol conditions: Homo sapiens
quantity: IC50

>>> endpoint_value("O=C(Nc1cc(F)ccc1-n1cccc1)c1ccc(OCCCN2CCCCC2)cc1 [LLM4]")
"35.1 µM"

* * *

- Tested on: MDA-MB-231 breast cancer cell line
- assay explanation: MTT cell viability assay, MDA-MB-231
- Assay type: cell-based, human
- protocol conditions: MDA-MB-231 (medium IL-6), 48 h, 0% FBS medium
quantity: IC50 (nM)

>>> endpoint_value("O=C(NNc1nc2cc(F)ccc2n2cccc12)c1cnccn1 [SC144, reference compound]")
1220
